This collection of values is drawn from paper doi:10.1101/2024.11.16.623948.

testedOn: FLAG-Ago1 (Drosophila melanogaster, UniProt A1Z9J5 1-950)
Sequence (A1Z9J5 entry or part of it): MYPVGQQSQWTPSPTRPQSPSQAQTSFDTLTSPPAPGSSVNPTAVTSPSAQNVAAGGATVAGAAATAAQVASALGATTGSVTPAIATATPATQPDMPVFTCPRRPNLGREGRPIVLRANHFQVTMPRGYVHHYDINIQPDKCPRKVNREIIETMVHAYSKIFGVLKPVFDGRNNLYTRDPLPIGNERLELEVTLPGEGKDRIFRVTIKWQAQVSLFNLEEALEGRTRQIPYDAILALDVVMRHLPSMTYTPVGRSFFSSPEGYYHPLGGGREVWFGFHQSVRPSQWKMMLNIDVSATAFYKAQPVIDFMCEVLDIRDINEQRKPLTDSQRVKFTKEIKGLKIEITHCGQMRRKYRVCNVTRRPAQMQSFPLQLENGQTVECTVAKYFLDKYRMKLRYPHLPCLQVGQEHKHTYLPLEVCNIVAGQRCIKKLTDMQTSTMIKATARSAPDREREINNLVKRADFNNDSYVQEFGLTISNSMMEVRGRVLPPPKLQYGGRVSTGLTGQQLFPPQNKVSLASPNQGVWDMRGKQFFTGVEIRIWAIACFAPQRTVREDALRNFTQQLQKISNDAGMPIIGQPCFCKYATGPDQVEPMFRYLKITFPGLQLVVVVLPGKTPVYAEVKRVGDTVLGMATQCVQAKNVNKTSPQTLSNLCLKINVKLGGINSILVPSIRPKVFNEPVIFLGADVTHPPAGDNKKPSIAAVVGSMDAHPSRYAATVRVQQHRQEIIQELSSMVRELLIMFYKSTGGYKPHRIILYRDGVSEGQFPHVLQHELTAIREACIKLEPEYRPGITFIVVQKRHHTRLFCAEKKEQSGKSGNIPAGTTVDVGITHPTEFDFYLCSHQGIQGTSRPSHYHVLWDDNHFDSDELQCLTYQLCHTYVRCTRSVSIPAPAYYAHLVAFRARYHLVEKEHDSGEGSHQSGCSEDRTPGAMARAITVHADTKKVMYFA
assaySummary: RBNS; miR-11 guide; bulge site analysis; RBNS: 20 mM HEPES-KOH pH 7.9, 100 mM KOAc, 3.5 mM Mg(OAc) (magnesium acetate), 0.05% CHAPS, 2 mM DTT, 8% glycerol, BSA, tRNA, 25 C 2 h; filter binding: 25 mM HEPES-KOH pH 7.9, 110 mM KOAc, 3.5 mM magnesium acetate, 2 mM DTT, BSA, tRNA, 8% glycerol, 25 C 2 h; competition: 18 mM HEPES-KOH pH 7.4, 100 mM KOAc, 3 mM magnesium acetate, 5 mM DTT, 0.01% IGEPAL, tRNA, 25 C 1 h
conditionDetails: protein: recombinant; tags: FLAG; g2-g7 + t1A
readoutType: Kd (nM)
Give bare numbers, in nM.

For miR-11 / 7mer-A1 (dsRNA, guide 5' phosphate) RNA 1: CAUCACAGUCUGAGUUCUUGC RNA 2: UGUGAUA , what is its reported Kd?
0.07
